# protocol-text: Calculated log partition coefficients
# Format: physicochemical
# stated-conditions: mineral oil:acidic water (pH 1.0) partition coefficient; calculated from log KOCT:1.0 − log KOCT:MO; data from Wenkers and Lippold 1999
endpoint-label: log KMO:1.0

| compound | observed-measurement |
| --- | --- |
| CC(C)Cc1ccc(C(C)C(=O)O)cc1 (stereo not shown) | 3.06 |
| O=C(O)c1ccccc1Nc1cccc(C(F)(F)F)c1 | 2.74 |
| O=C(O)c1cc(-c2ccc(F)cc2F)ccc1O | 0.88 |
| COc1ccc2cc(CCC(C)=O)ccc2c1 | 2.72 |
| O=C(O)Cc1ccccc1Nc1c(Cl)cccc1Cl | 1.41 |

I: CN1C(C(=O)Nc2ccccn2)=C(O)c2ccccc2S1(=O)=O
II: CC(=O)Oc1ccccc1C(=O)O
I or II : whose log KMO:1.0 is greater? Select an item and report its label.
I
